molecular target: M1R (Homo sapiens, UniProt P11229); experiment: M1R-induced increase of THIK-1 channel current, whole cell patch clamp in HEK293T cells; settings: concentration response of THIK-1 current increase (Iagonist/I0), Hill fit; HEK293T
Sequence (P11229 whole entry): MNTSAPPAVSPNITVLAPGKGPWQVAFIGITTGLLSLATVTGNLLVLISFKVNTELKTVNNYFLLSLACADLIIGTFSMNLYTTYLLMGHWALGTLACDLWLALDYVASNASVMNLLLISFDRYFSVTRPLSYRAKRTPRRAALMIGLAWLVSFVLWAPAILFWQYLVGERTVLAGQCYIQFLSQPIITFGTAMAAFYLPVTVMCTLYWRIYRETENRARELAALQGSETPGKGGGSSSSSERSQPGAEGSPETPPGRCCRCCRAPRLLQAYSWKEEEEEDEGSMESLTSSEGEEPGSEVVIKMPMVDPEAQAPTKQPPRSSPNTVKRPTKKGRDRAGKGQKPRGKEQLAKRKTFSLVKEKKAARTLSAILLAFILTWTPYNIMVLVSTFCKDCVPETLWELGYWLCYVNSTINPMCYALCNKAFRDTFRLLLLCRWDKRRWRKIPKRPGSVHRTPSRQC
Assay Metric: pEC50
Please keep in mind that pEC50 is minus log10 of the molar concentration; only the number is needed.

Output measured pEC50 for this item: C[N+](C)(C)CC#CCN1CCCC1=O [oxo-M, oxotremorine-M] 6.57

---

biological target: M2R (Homo sapiens, UniProt P08172); experiment: M2R-induced increase of THIK-1 channel current, whole cell patch clamp in HEK293T cells; conditions: concentration response of THIK-1 current increase (Iagonist/I0), Hill fit
Sequence (P08172 whole entry): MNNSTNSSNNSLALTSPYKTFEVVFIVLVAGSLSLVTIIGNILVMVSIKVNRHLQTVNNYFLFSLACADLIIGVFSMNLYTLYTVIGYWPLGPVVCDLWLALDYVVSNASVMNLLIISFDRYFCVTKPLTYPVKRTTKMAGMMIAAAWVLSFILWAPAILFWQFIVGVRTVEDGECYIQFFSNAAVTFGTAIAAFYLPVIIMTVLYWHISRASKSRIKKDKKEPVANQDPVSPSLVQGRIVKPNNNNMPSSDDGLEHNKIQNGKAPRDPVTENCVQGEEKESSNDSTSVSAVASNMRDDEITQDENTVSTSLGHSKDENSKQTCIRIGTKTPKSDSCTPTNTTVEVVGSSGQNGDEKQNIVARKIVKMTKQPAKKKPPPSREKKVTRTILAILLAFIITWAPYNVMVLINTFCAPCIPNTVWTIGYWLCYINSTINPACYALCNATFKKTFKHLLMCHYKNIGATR
Assay Metric: pEC50
Please keep in mind that pEC50 is minus log10 of the molar concentration; only the number is needed.

Report the value of pEC50 obtained on M2R (Homo sapiens, UniProt P08172) for C[N+](C)(C)CC#CCN1CCCC1=O . 4.20
